target: hemagglutinin (HA) of influenza virus H7N7 A/PR8 H7N7-NY (influenza A virus); test: cell-based or functional assay
average neutralization titer values, listed per item

BINDER	average neutralization titer
MD2322 (VHH) EVQLVESGGGLVQPGGSLRLSCAVSISIFDIYAMDWYRQAPGKQRDLVATSFRDGSTNYADSVKGRFTISRDNAKNTLYLQMNSLKPEDTAVYLCHVSLYRDPLGVAGGMGVYWGKGALVTVSSGGGGSGGGGSEVQLVESGGGLVQPGGSLRLSCAVSISIFDIYAMDWYRQAPGKQRDLVATSFRDGSTNYADSVKGRFTISRDNAKNTLYLQMNSLKPEDTAVYLCHVSLYRDPLGVAGGMGVYWGKGALVTVSSGGGGSGGGGSEVQLVESGGGLVQPGGSLRLSCAVSISIFDIYAMDWYRQAPGKQRDLVATSFRDGSTNYADSVKGRFTISRDNAKNTLYLQMNSLKPEDTAVYLCHVSLYRDPLGVAGGMGVYWGKGALVTVSS	14.7 nM
MD2317 (bispecific antibody) EVQLVESGGGLVQPGGSLRLSCAVSISIFDIYAMDWYRQAPGKQRDLVATSFRDGSTNYADSVKGRFTISRDNAKNTLYLQMNSLKPEDTAVYLCHVSLYRDPLGVAGGMGVYWGKGALVTVSSGGGGSGGGGSEVQLVESGGGLVQAGDSLRISCAASGRTLSIYSMGWFRQAPGKEREFVATIGWNSGRTFYPDSLKGRFTISRDNARNTLYLQMNNLRPEDTAVYYCAAAKGPLRLSSQADYWGQGTQVTVSSGGGGSGGGGSEVQLVESGGGLVQPGGSLRLSCAATGFTLENKAIGWFRQTPGSEREGVLCISKSGSWTYYTDSMRGRFTISRDNAENTVYLQMDSLKPEDTAVYYCATTTAGGGLCWDGTTFSRLASSWGQGTQVTVSS	12.8 nM
MD2303 (bispecific antibody) EVQLVESGGGLVQPGGSLRLSCAVSISIFDIYAMDWYRQAPGKQRDLVATSFRDGSTNYADSVKGRFTISRDNAKNTLYLQMNSLKPEDTAVYLCHVSLYRDPLGVAGGMGVYWGKGALVTVSSGGGGSGGGGSEVQLVESGGGLVQAGGSLKLSCAASGRTYAMGWFRQAPGKEREFVAHINALGTRTYYSDSVKGRFTISRDNAKNTEYLEMNNLKPEDTAVYYCTAQGQWRAAPVAVAAEYEFWGQGTQVTVSSGGGGSGGGGSEVQLVESGGGLVQPGGSLRLSCAATGFTLENKAIGWFRQTPGSEREGVLCISKSGSWTYYTDSMRGRFTISRDNAENTVYLQMDSLKPEDTAVYYCATTTAGGGLCWDGTTFSRLASSWGQGTQVTVSS	18.2 nM

// provenance: patent US20190359693A1
